AC50 data for Cytochrome P450 3A4 (Homo sapiens, UniProt P08684) follow.

{"columns": ["compound", "AC50"],
 "data": [
  ["CCOc1cc(NC(=O)c2ccc(OC)cc2)c(OCC)cc1N=C(S)Nc1ccccc1", "14.1 µM (inconclusive)"],
  ["N#Cc1c(NC(=O)C(F)(F)F)sc2c3c(=O)c4ccccc4c(=O)c=3oc3ccccc3c12", "3.98 µM (inconclusive)"],
  ["O=C(Nc1ccc(OC(F)(F)F)cc1)c1n[nH]c(Cn2cncn2)n1", "15.8 µM (inconclusive)"],
  ["N#C/C(=C\\c1ccc(O)c(O)c1)C(=O)OCCc1cccs1", "20 µM (inconclusive)"],
  ["COc1ccc(-n2c(=O)c(-c3cccs3)nc3cnc(N4CCN(C)CC4)nc32)cc1", "25.1 µM (inconclusive)"],
  ["O=c1c(-c2ccc(F)cc2)nc2cnc(Nc3ccccc3)nc2n1C[C@H]1CCCO1", "12.6 µM (inconclusive)"],
  ["CCc1c(C(=O)OC)ncc2[nH]c3cc(OC)c(OC)cc3c12", "15.8 µM (inconclusive)"],
  ["Cc1cnc(CNc2cc(-c3cccnc3)ncn2)cn1", "15.8 µM (inconclusive)"],
  ["COc1ccc(COC(=O)N/N=C2/C[C@@H](O)[C@@H](O)[C@@H]3[C@H]4C(=O)N(c5ccc(F)cc5F)C(=O)[C@@H]4CC[C@@H]23)cc1", "3.16 µM (inconclusive)"]
]}

====

Reported values of EC50 for individual entries
- test-system: Zinc finger protein mex-5 (Caenorhabditis elegans, UniProt Q9XUB2)
- Sequence (Q9XUB2 whole entry): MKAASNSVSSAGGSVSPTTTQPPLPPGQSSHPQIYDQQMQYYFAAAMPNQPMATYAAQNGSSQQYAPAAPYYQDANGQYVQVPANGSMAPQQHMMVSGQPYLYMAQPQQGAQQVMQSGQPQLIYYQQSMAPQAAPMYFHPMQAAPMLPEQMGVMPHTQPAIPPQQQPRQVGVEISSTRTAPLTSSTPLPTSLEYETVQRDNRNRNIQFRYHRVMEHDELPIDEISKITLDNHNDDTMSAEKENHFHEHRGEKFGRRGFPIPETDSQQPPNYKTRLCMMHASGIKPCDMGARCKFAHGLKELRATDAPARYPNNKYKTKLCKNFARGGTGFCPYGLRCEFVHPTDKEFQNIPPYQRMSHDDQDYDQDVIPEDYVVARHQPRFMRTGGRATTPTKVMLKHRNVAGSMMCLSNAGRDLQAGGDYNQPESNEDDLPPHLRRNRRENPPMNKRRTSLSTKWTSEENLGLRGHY
- experiment-notes: MEX-5/TCR-2 RNA interaction inhibitors, dose response, biochemical, C. elegans, fluorescence polarization (AID 1960)
The source made the active and inactive calls.

{"columns": ["compound", "EC50"],
 "data": [
  ["CCOc1ccc2c(c1)/C(=C(\\C(Cl)=C(Cl)Cl)[N+](=O)[O-])N2", "40.3 µM (active)"],
  ["O=C(NNC(=O)c1ccccc1O)c1ccc(S(=O)(=O)Nc2ccccc2F)cc1", "> 300 µM (inconclusive)"],
  ["COC(=O)c1c(Cl)c2n3ccccc3c(C)c(-c3ccccc3)c-2c1C(=O)OC", "25.8 µM (active)"],
  ["Cc1ccc(N/C=C/C(=O)c2sc(-c3ccccc3)nc2C)cc1", "> 300 µM (not active)"],
  ["CCOC(=O)Cn1c(=O)c(-c2cc(Br)ccc2N)nc2ccccc21", "26.1 µM (inconclusive)"],
  ["CCOC(=O)CSc1nc2ccc(Nc3nc(N4CCOCC4)nc(N4CCOCC4)n3)cc2s1", "> 300 µM (not active)"],
  ["COC(=O)c1sccc1NC(=O)c1ccc(C)s1", "> 300 µM (not active)"],
  ["Cc1ccc2[nH]c(O)c(N=Nc3ccccc3C)c2c1", "> 300 µM (not active)"],
  ["O=C(N/N=C/c1cccn1-c1cccc(C(=O)O)c1)Nc1ccccc1", "> 300 µM (not active)"],
  ["COc1cc(C2C(C#N)=C(N)Oc3[nH]nc(-c4cccnc4)c32)cc(Br)c1O (stereo not given)", "> 300 µM (not active)"]
]}

====

- test-system: Nonstructural protein 1 (Influenza A virus)
- Sequence (Q194T2 whole entry): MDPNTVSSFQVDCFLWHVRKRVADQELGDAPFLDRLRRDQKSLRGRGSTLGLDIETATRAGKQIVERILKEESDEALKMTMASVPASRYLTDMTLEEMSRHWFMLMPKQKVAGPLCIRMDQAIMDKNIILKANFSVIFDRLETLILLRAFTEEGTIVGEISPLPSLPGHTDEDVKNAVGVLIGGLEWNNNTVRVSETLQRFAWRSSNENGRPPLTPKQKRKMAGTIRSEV
- Assay type: functional, Influenza A virus (A/California/07/2009(H1N1))
Active and inactive are the calls of the source.

{"columns": ["molecule", "IC50"],
 "data": [
  ["O=C(NCCCn1ccnc1)C(=O)NCC1OCCN1S(=O)(=O)c1cc(F)ccc1F (stereo not given)", "12.7 µM (active)"],
  ["COc1ccc(C(CCNCc2ccc(N(C)C)cc2)c2ccccc2OC)cc1 (stereo not given)", "20.2 µM (active)"],
  ["Oc1c(CN2CCCCC2)ccc2cccnc12", "2.05 µM (active)"],
  ["CCN1C(=O)/C(=C2\\C=Cc3ccccc3N2CC)SC1=S", "4.15 µM (active)"],
  ["NNc1nccc(Nc2ccccc2C(=O)O)n1", "8.21 µM (active)"]
]}

====

Reported values of IC50 for individual entries
- test-system: Calpain-2 catalytic subunit (Sus scrofa, UniProt P43367)
- Sequence (P43367 whole entry): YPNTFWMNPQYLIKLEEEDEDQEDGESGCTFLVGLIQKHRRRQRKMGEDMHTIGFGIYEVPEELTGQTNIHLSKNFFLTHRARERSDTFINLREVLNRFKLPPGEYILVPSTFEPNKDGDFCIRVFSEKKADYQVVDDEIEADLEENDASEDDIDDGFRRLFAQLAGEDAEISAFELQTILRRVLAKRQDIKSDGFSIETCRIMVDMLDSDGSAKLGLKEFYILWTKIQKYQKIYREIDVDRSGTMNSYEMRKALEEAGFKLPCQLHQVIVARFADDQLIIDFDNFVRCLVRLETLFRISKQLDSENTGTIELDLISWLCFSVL
- experiment-notes: pig calpain II inhibitor potency, dose response, biochemical, fluorogenic peptide substrate (AID 1420)
- Assay type: functional
measure-name: IC50

{"columns": ["molecule", "test-system", "recorded-value"],
 "data": [
  ["C/C(=N\\OCC(=O)Nc1ccc(Br)cc1)c1cccs1", "Calpain-2 catalytic subunit (Sus scrofa, UniProt P43367)", "> 50 µM (not active)"],
  ["O=c1c(C(c2ccccc2)c2c(O)sc3ccccc3c2=O)c(O)sc2ccccc12", "Calpain-2 catalytic subunit (Sus scrofa, UniProt P43367)", "4.29 µM (not active)"],
  ["Cc1ccc2c(c1)CCCN2C(=O)c1ccc2c(c1)OCO2", "Calpain-2 catalytic subunit (Sus scrofa, UniProt P43367)", "> 50 µM (not active)"],
  ["COc1ccc(-c2nc(NC(=O)CCNC(=O)c3ccco3)sc2C)cc1", "Calpain-2 catalytic subunit (Sus scrofa, UniProt P43367)", "3.03 µM (not active)"],
  ["[O-][S+](N1CCc2ccccc21)C12CC3CC(CC(C3)C1)C2 (stereo not drawn)", "Calpain-2 catalytic subunit (Sus scrofa, UniProt P43367)", "10.8 µM (not active)"],
  ["O=C(O)CCC(=O)N1CCN(c2ccc(C(=O)c3ccc(F)cc3)cc2)CC1", "Calpain-2 catalytic subunit (Sus scrofa, UniProt P43367)", "> 50 µM (not active)"],
  ["CCOc1ccc(NC(=O)CCC(=O)n2nc(C)cc2C)cc1", "Calpain-2 catalytic subunit (Sus scrofa, UniProt P43367)", "< 0.4 µM (not active)"],
  ["Cc1ccc(N(CC(=O)Nc2cccc(C)c2)S(=O)(=O)c2cccc3nonc23)cc1", "Calpain-2 catalytic subunit (Sus scrofa, UniProt P43367)", "1.1 µM (not active)"]
]}

====

- test-system: DNA repair and recombination protein RAD54-like (Homo sapiens)
- Sequence (Q92698 whole entry): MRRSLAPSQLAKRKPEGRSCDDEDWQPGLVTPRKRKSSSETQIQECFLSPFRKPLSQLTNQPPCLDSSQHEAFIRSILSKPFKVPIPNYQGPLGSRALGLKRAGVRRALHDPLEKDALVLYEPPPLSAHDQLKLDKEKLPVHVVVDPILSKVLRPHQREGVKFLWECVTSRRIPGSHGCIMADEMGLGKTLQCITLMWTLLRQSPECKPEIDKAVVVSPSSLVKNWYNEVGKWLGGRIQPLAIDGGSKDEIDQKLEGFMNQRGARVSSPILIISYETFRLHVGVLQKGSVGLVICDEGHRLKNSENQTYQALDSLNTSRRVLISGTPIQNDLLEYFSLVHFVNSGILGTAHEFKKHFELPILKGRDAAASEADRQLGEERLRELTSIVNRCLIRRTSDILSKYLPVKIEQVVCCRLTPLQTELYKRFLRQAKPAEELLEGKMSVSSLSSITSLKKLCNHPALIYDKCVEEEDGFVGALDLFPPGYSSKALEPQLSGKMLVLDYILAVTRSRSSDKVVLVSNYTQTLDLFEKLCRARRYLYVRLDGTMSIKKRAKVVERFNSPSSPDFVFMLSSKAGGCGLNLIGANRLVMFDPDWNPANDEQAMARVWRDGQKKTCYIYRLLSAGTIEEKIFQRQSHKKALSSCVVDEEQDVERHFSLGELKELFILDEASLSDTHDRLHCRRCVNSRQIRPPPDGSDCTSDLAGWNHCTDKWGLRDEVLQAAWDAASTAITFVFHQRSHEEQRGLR
- experiment-notes: inhibitors of human RAD54 branch migration, confirmation, biochemical, fluorescence, cherry-picked samples, dose series (AID 651657)
- Assay type: functional
Active and inactive are the calls of the source.
Labels: 1.0 for active, 0.0 for inactive

{"columns": ["compound", "label"],
 "data": [
  ["Cc1cc(N2CCN(C)CC2)nc2ccc(NC(=S)NCCCN3CCc4ccccc4C3)cc12", 1.0],
  ["CCN(CC)CCCNC(=O)c1ccc2c3n(nc2c1)-c1ccc(Cl)cc1CO3", 1.0],
  ["c1ccc(-c2nc(NCCCn3ccnc3)c3oc4ccccc4c3n2)cc1", 0.0],
  ["CN(C)CCNC(=O)c1cccc(-c2cnc3c(NC=O)cc(-c4cccs4)cn23)c1", 1.0],
  ["CCN(CC)CCNC(=O)c1cc2c(=O)n(C)c3ccccc3c2s1", 1.0]
]}

Where these numbers come from: ChEMBL document CHEMBL1201862
